Target: 83 kd polypeptide of cellulose synthase (Komagataeibacter xylinus)
Construct: endogenous in cells; host or cells: Acetobacter xylinum ATCC 53582; membranes solubilized with detergent, enzyme purified by cellulose entrapment
Sequence (P0CW87 1-723): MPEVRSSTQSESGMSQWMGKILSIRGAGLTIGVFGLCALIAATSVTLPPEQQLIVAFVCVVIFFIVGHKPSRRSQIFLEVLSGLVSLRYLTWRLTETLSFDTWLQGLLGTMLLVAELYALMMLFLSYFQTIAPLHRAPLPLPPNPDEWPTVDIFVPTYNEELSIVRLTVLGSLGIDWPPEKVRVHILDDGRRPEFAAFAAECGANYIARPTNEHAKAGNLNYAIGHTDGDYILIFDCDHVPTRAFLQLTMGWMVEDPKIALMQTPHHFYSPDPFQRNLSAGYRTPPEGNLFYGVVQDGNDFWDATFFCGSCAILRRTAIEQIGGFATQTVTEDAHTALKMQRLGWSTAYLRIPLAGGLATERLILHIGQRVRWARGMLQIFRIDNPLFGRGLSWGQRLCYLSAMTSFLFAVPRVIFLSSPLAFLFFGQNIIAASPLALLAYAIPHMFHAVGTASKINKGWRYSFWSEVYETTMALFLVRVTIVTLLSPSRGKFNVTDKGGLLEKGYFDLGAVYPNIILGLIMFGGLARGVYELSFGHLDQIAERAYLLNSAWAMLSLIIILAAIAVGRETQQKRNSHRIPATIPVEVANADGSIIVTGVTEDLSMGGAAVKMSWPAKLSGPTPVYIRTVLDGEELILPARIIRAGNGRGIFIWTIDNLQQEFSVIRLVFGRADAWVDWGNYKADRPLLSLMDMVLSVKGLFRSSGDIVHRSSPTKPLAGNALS
Sequence (P0CW87 742-1550 partner limits assumed): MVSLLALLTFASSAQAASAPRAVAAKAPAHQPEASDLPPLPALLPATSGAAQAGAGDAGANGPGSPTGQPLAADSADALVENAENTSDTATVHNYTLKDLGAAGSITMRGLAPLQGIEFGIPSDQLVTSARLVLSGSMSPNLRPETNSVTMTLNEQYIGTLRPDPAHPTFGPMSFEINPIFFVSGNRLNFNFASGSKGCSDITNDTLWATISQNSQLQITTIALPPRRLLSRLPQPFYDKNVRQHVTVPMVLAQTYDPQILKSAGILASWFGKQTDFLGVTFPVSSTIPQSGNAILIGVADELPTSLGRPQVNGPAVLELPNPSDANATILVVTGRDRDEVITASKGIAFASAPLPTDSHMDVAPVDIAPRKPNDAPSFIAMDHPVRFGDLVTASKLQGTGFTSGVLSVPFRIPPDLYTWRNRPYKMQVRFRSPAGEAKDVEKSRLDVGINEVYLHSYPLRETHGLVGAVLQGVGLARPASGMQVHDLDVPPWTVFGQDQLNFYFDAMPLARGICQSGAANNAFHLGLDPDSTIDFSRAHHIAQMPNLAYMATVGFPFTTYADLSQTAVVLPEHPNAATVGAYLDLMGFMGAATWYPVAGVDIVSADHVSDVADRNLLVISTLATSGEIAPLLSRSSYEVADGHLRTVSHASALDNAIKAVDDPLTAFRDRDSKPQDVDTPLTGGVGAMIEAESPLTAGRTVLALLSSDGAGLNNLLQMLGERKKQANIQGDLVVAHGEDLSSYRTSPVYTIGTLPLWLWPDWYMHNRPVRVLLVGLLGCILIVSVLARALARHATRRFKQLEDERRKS
Experiment: Photoaffinity labeling of purified cellulose synthase with [β-32P]5N3UDP-glc
Format: binding, Acetobacter xylinum
Details: probe 20-500 μM; 83 kd polypeptide; read-out: kd value, saturation of cellulose synthase photolabeling
Procedure: In addition to 20 μl of activator for cellulose synthase, each reaction mixture contained 50 mM Tris-HCl, 10 mM MgCl2, 1 mM CaCl2, 1 mM EDTA, the indicated protein quantity of enzyme sample, and 20 μM of [β-^32P]5N3UDP-glc (specific activity, 24 mCi/μmol) in a final reaction volume of 50 μl at pH 8.0-8.5. […] The quantitation of the autoradiographs was measured by grey value discrimination of a digitized image (recorded on a Kontron/Zeiss IBAS Image Processing System).
pKd: −log10 of the molar value.
Assay readout: pKd

INSERT INTO assay_data (compound, assay_readout, test_result) VALUES
  ('[N-]=[N+]=Nc1cn([C@@H]2O[C@H](COP(=O)(O)OP(=O)(O)O[C@H]3O[C@H](CO)[C@@H](O)[C@H](O)[C@H]3O)[C@@H](O)[C@H]2O)c(=O)[nH]c1=O [[β-^32P]5N3UDP-glc]', 'pKd', 4.17);
